From: ChEMBL document CHEMBL5143606

- Target or system: von Hippel-Lindau disease tumor suppressor/Wee1-like protein kinase (Homo sapiens) (UniProt P30291+P40337)
- Sequence (P30291 whole entry, looked up): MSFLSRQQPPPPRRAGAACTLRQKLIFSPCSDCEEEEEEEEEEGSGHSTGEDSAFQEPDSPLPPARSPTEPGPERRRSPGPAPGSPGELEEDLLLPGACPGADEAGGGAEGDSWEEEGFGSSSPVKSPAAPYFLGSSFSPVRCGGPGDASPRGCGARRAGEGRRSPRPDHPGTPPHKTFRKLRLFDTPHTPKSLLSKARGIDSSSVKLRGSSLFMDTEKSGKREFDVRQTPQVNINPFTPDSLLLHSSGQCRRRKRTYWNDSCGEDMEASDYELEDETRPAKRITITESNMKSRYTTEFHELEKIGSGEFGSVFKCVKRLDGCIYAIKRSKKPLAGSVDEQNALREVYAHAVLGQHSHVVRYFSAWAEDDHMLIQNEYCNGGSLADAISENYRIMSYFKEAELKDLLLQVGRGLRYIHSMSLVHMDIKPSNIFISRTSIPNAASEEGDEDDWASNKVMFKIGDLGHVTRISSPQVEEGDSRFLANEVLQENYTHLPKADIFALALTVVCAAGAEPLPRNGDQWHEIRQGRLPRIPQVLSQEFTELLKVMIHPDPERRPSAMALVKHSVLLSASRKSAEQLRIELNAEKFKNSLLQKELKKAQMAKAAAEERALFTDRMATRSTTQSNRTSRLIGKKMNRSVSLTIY
- Sequence (P40337 whole entry, looked up): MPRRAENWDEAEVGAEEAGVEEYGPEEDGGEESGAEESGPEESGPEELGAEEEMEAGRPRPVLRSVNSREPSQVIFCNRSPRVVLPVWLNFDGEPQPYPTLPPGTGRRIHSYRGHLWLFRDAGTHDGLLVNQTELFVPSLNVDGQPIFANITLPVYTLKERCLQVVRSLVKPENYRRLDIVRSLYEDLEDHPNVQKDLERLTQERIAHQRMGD
- Test name: PROTAC activity at VHL/Wee1 in human HeLa S3 cells assessed as induction of Wee1 degradation by measuring reduction in phosphorylation of CDK1 at Tyr15 residue at 1 uM measured after 24 hrs by Western blot analysis relative to control
- Type: cell-based
- Set-up: scale not given: the % may be the effect or the level left
Below is a list of entries, each paired with its recorded Activity value.

| Structure smiles | Activity [%] |
| --- | --- |
| C=CCn1c(=O)c2cnc(Nc3ccc(N4CCN(CCCC(=O)NCCOCCOCCOCCOCCC(=O)N[C@H](C(=O)N5C[C@H](O)C[C@H]5C(=O)NCc5ccc(-c6scnc6C)cc5)C(C)(C)C)CC4)cc3)nc2n1-c1cccc(C(C)(C)O)n1 | 80 |
| C=CCn1c(=O)c2cnc(Nc3ccc(N4CCN(CCCC(=O)N[C@H](C(=O)N5C[C@H](O)C[C@H]5C(=O)NCc5ccc(-c6scnc6C)cc5)C(C)(C)C)CC4)cc3)nc2n1-c1cccc(C(C)(C)O)n1 | 49 |
| C=CCn1c(=O)c2cnc(Nc3ccc(N4CCN(CCCC(=O)NCCCCCCCC(=O)N[C@H](C(=O)N5C[C@H](O)C[C@H]5C(=O)NCc5ccc(-c6scnc6C)cc5)C(C)(C)C)CC4)cc3)nc2n1-c1cccc(C(C)(C)O)n1 | 53 |
| C=CCn1c(=O)c2cnc(Nc3ccc(N4CCN(CCCC(=O)NCCCCCC(=O)N[C@H](C(=O)N5C[C@H](O)C[C@H]5C(=O)NCc5ccc(-c6scnc6C)cc5)C(C)(C)C)CC4)cc3)nc2n1-c1cccc(C(C)(C)O)n1 | 64 |
| C=CCn1c(=O)c2cnc(Nc3ccc(N4CCN(CCCC(=O)NCCCC(=O)N[C@H](C(=O)N5C[C@H](O)C[C@H]5C(=O)NCc5ccc(-c6scnc6C)cc5)C(C)(C)C)CC4)cc3)nc2n1-c1cccc(C(C)(C)O)n1 | 55 |
| C=CCn1c(=O)c2cnc(Nc3ccc(N4CCN(CCCC(=O)NCCOCCOCCOCC(=O)N[C@H](C(=O)N5C[C@H](O)C[C@H]5C(=O)NCc5ccc(-c6scnc6C)cc5)C(C)(C)C)CC4)cc3)nc2n1-c1cccc(C(C)(C)O)n1 | 72 |
| C=CCn1c(=O)c2cnc(Nc3ccc(N4CCN(CCCC(=O)NCCCCCCCCCCC(=O)N[C@H](C(=O)N5C[C@H](O)C[C@H]5C(=O)NCc5ccc(-c6scnc6C)cc5)C(C)(C)C)CC4)cc3)nc2n1-c1cccc(C(C)(C)O)n1 | 47 |

###

- Target or system: von Hippel-Lindau disease tumor suppressor/Wee1-like protein kinase (Homo sapiens) (UniProt P30291+P40337)
- Test name: PROTAC activity at VHL/Wee1 in human HeLa S3 cells assessed as induction of Wee1 degradation at 1 uM measured after 24 hrs by Western blot analysis relative to control
- Format: cell-based
Quantity measured: Activity (%)

| Structure smiles | Unit tag | Number |
| --- | --- | --- |
| C=CCn1c(=O)c2cnc(Nc3ccc(N4CCN(CCCC(=O)NCCCCCC(=O)N[C@H](C(=O)N5C[C@H](O)C[C@H]5C(=O)NCc5ccc(-c6scnc6C)cc5)C(C)(C)C)CC4)cc3)nc2n1-c1cccc(C(C)(C)O)n1 | % | 71 |
| C=CCn1c(=O)c2cnc(Nc3ccc(N4CCN(CCCC(=O)NCCCCCCCC(=O)N[C@H](C(=O)N5C[C@H](O)C[C@H]5C(=O)NCc5ccc(-c6scnc6C)cc5)C(C)(C)C)CC4)cc3)nc2n1-c1cccc(C(C)(C)O)n1 | % | 68 |
| C=CCn1c(=O)c2cnc(Nc3ccc(N4CCN(CCCC(=O)NCCOCCOCCOCCOCCC(=O)N[C@H](C(=O)N5C[C@H](O)C[C@H]5C(=O)NCc5ccc(-c6scnc6C)cc5)C(C)(C)C)CC4)cc3)nc2n1-c1cccc(C(C)(C)O)n1 | % | 108 |
| C=CCn1c(=O)c2cnc(Nc3ccc(N4CCN(CCCC(=O)NCCOCCOCCOCC(=O)N[C@H](C(=O)N5C[C@H](O)C[C@H]5C(=O)NCc5ccc(-c6scnc6C)cc5)C(C)(C)C)CC4)cc3)nc2n1-c1cccc(C(C)(C)O)n1 | % | 94 |
| C=CCn1c(=O)c2cnc(Nc3ccc(N4CCN(CCCC(=O)NCCCC(=O)N[C@H](C(=O)N5C[C@H](O)C[C@H]5C(=O)NCc5ccc(-c6scnc6C)cc5)C(C)(C)C)CC4)cc3)nc2n1-c1cccc(C(C)(C)O)n1 | % | 68 |
| C=CCn1c(=O)c2cnc(Nc3ccc(N4CCN(CCCC(=O)NCCCCCCCCCCC(=O)N[C@H](C(=O)N5C[C@H](O)C[C@H]5C(=O)NCc5ccc(-c6scnc6C)cc5)C(C)(C)C)CC4)cc3)nc2n1-c1cccc(C(C)(C)O)n1 | % | 50 |
| C=CCn1c(=O)c2cnc(Nc3ccc(N4CCN(CCCC(=O)N[C@H](C(=O)N5C[C@H](O)C[C@H]5C(=O)NCc5ccc(-c6scnc6C)cc5)C(C)(C)C)CC4)cc3)nc2n1-c1cccc(C(C)(C)O)n1 | % | 34 |
